Data provenance is the supplement of paper PMC10567573.

B1: WDR41 (parent)
chain: HVGELIIWDALDWTMQAYERNFWD

variants of: B1; experiment: protein stability index of a GFP-peptide fusion (GPS, HEK-293T) (PSI 1-6); higher = more stable; conditions: c terminus: a fixed tail appended;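 further: lentivirally expressed fusions sorted by FACS into six bins by GFP to DsRed ratio, PSI derived from sequencing read proportions per bin multiplied by bin number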
Decide by protein stability index: equal to or exceeding 2 means condition met, less means condition not met.

[[record]]
mutation_id = "I7Y"
class = "condition met"

[[record]]
mutation_id = "I7A"
class = "condition not met"

[[record]]
mutation_id = "W8A"
class = "condition met"

[[record]]
mutation_id = "H1K"
class = "condition met"

[[record]]
mutation_id = "D12V"
class = "condition met"

[[record]]
mutation_id = "N21E"
class = "condition met"


In: Hello, I need to know if H1N has measured protein stability index not below 2. Thanks!
Out: condition not met

In: Next record, please: W13K
Out: condition met

In: Next record, please: D9M
Out: condition met

In: Next record, please: L11Q
Out: condition met

In: Next record, please: R20A
Out: condition not met

In: Next record, please: E4M
Out: condition met

In: Next record, please: N21M
Out: condition met

In: Next record, please: A10H
Out: condition not met
